Test: qHTS assay to test for compound auto fluorescence at 535 nm (green) in HEK293 cells (AID 720680)
Settings: green autofluorescence 485/535 nm; series mostly up to 46 µM
Excerpt: U.S. Tox21 Program National Center for Advancing Translational Sciences [NCATS] NIH Chemical Genomics Center [NCGC] U.S. Environmental Protection Agency [EPA] National Institutes of Environmental Health Sciences [NIEHS] National Toxicology Program [NTP] U.S. Food and Drug Administration [FDA] Tox21 Assay Overview: Compound auto fluorescence often interferes with screening of the compound library against various biological targets and signaling pathways. […] This assay includes the green fluorescence data. […]
Calls of active or inactive are those of the source. Calls come from the whole dose curve; as a rule, active = well fitted curve in the direction sought with a large enough effect in the repeat runs; inconclusive = weak or mixed curves; inactive = flat fitted curve, though single readings scatter.
outcome_measure: outcome

compound=O=C(O)C1=C(CSc2nnnn2CS(=O)(=O)O)CS[C@@H]2[C@H](NC(=O)[C@H](O)c3ccccc3)C(=O)N12 outcome_measure=outcome reported_result=inactive
compound=CC(=O)OCC(=O)[C@@]1(O)[C@H](C)C[C@H]2[C@@H]3C[C@H](F)C4=CC(=O)C=C[C@]4(C)[C@H]3[C@@H](O)C[C@@]21C outcome_measure=outcome reported_result=inactive
compound=NNc1nnc(Cc2ccncc2)c2ccccc12 outcome_measure=outcome reported_result=inactive
compound="CC(=O)Oc1c(C)cc(OCC(O)CNC(C)C)c(C)c1C (stereo not drawn)" outcome_measure=outcome reported_result=inactive
compound=COC(=O)[C@H]1[C@H]2C[C@@H]3c4[nH]c5cc(OC)ccc5c4CCN3C[C@H]2C[C@@H](OC(=O)/C=C/c2cc(OC)c(OC)c(OC)c2)[C@@H]1OC outcome_measure=outcome reported_result=inactive
compound="CCOC(=O)C1=C(COCCN)NC(C)=C(C(=O)OC)C1c1ccccc1Cl (stereo not drawn)" outcome_measure=outcome reported_result=inactive
compound=CCC(=O)c1ccc2c(c1)N(CCCN1CCN(CCO)CC1)c1ccccc1S2 outcome_measure=outcome reported_result=inactive

Query: Please look up its outcome: CCN(CC)c1ccc(N=Nc2ccc(S(=O)(=O)N(C)C)cc2)c(S(=O)(=O)NCC[n+]2ccccc2)c1
Reply: inactive

----------
Molecular target: Aromatase (Homo sapiens)
Assay: qHTS assay to identify aromatase inhibitors (AID 743083); note: nearly all actives have a fitted effect of over 55% in size
Conditions: MCF-7 aro ERE, testosterone-driven ERE luciferase, 24 h; series mostly up to 70.3 µM
Results filed as inconclusive are left out. Active and inactive are the calls of the source. Calls follow the shape of the dose curve; as a rule, active = well fitted inhibition curve with a large enough effect in the repeat runs; inconclusive = weak or mixed curves; inactive = no such curve, though single readings can be large or run the other way.
outcome_measure: outcome

compound=CCOC(=O)C1=C[C@@H](OC(CC)CC)[C@H](NC(C)=O)[C@@H](N)C1 reported_result=inactive
compound="CCCN(CC)C(CC)C(=O)Nc1c(C)cccc1C (stereo not drawn)" reported_result=inactive
compound="OCC(S)CS (stereo not drawn)" reported_result=inactive
compound=O=C(Nc1ccc(Br)cc1)c1cc(Br)c(Br)s1 reported_result=inactive
compound=CCCCCCCCCCCCCCCC(=O)O[C@@H]1[C@@H](O)[C@@H](O)[C@@H]([C@H](NC(=O)[C@@H]2C[C@@H](CCC)CN2C)[C@H](C)Cl)O[C@@H]1SC reported_result=inactive
compound=NC[C@@H]1O[C@H](O[C@H]2[C@@H](O)[C@H](O[C@@H]3[C@@H](O)[C@H](N)C[C@H](N)[C@H]3O[C@H]3O[C@H](CN)[C@@H](O)[C@H](O)[C@H]3N)O[C@@H]2CO)[C@H](N)[C@@H](O)[C@@H]1O reported_result=inactive
compound=CO[C@H]1[C@@H](O)[C@H](N)[C@@H](O[C@H]2O[C@H]([C@H](C)N)CC[C@H]2N)[C@H](O)[C@@H]1N(C)C(=O)CN reported_result=inactive

Turning now to a further compound:
Query: // map O=C(O)c1nc(=O)[nH]c(=O)[nH]1 to recorded outcome (system: Aromatase (Homo sapiens))
Reply: inactive

----------
Assay: qHTS assay to identify small molecule antagonists of the estrogen receptor alpha (ER-alpha) signaling pathway - cell viability counter screen (AID 743074);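 note: HEK293 cells carrying ER-alpha-UAS-bla reporter stimulated with 17beta-estradiol; nearly all actives have a fitted effect of over 45% in size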
Details: ERalpha-bla HEK293 viability, CellTiter-Glo luminescence, 18 h; series mostly up to 69.4 µM
Inconclusive results are not listed. Active and inactive are the calls of the source. The call rests on the fitted dose curve.
Entry note: the call must match one of true (1) for active, false (0) for inactive

# count of solved cases: 6
compound=c1ccc2c(c1)Sc1ccccc1N2CCN1CCCC1 group_label="false (0)"
compound=O=C(Nc1ccc(/C=C/c2ccc(NC(=O)c3cc(S(=O)(=O)O)c4cccnc4c3O)cc2S(=O)(=O)O)c(S(=O)(=O)O)c1)c1cc(S(=O)(=O)O)c2cccnc2c1O group_label="false (0)"
compound=CCCCC[C@H](O)/C=C/[C@H]1[C@H](O)CC(=O)[C@@H]1CCCCCCC(=O)O group_label="false (0)"
compound="CN[C@@H]1[C@@H](O)[C@@H](O[C@@H]2[C@@H](O)[C@H](O[C@H]3O[C@H](CN)[C@@H](O)[C@H](O)[C@H]3O)[C@@H](N)C[C@H]2NC(=O)C(O)CN)OC[C@]1(C)O (some centres not stated)" group_label="false (0)"
compound=CCN(CC)CCOc1ccc(-c2nc3cc(Cl)ccc3s2)cc1 group_label="false (0)"
compound=CC(=O)N=c1sc(S(N)(=O)=O)nn1C group_label="false (0)"

Could you now consider this next compound?
Query: Recorded test call requested for C[N+]1(C)[C@@H]2CC(OC(=O)C(O)(c3cccs3)c3cccs3)C[C@H]1[C@@H]1O[C@@H]12 (some centres not stated)
Reply: false (0)

----------
Assay: qHTS assay for identifying genotoxic compounds that show differential cytotoxicity against isogenic chicken DT40 cell lines with known DNA damage response pathways - Rad54/Ku70 mutant cell line (AID 743015); note: nearly all actives have a fitted effect of over 60% in size
Conditions: DT40 Rad54/Ku70 mutant viability, CellTiter-Glo, 40 h; series mostly up to 66.8 µM
Records with an inconclusive call do not appear. Active and inactive are the calls of the source. Calls follow the shape of the dose curve; as a rule, active = well fitted cell-killing curve with a large enough effect in the repeat runs; inconclusive = weak or mixed curves; inactive = no such curve, though single readings can be large or run the other way.
Entry note: the call must match one of TRUE for active, FALSE for inactive

compound=c1ccc2c(CCC3CCNCC3)c[nH]c2c1 group_label=TRUE
compound=CCC(=O)OCC(=O)[C@@]1(OC(=O)CC)[C@H](C)C[C@H]2[C@@H]3CCC4=CC(=O)C=C[C@]4(C)[C@@]3(F)[C@@H](O)C[C@@]21C group_label=TRUE
compound=Cc1cccc(Nc2ncccc2C(=O)O)c1C group_label=FALSE
compound=COc1ccc(C[C@H](C)NC[C@@H](O)c2ccc(O)c(NC=O)c2)cc1 group_label=TRUE
compound="OCC(S)CS (stereo unspecified)" group_label=TRUE

Could you now consider this next compound?
Query: Recorded test call requested for CCCC(=O)Nc1ncnc2c1ncn2[C@@H]1O[C@@H]2COP(=O)(O)O[C@H]2[C@H]1OC(=O)CCC
Reply: FALSE

----------
Assay: qHTS assay to identify aromatase inhibitors - cell viability counter screen (AID 743084);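 note: cells stimulated with testosterone during compound exposure; nearly all actives have a fitted effect of over 55% in size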
Settings: MCF-7 aro ERE viability, CellTiter-Fluor, 24 h; series mostly up to 70.3 µM
Inconclusive results are not listed. Activity calls are given as the source filed them. Calls follow the shape of the dose curve; as a rule, active = well fitted cell-killing curve with a large enough effect in the repeat runs; inconclusive = weak or mixed curves, or effect the other way; inactive = no such curve, though single readings can be large or run the other way.
Entry note: the call must match one of active, inactive

# count of solved cases: 5
compound=CCC[C@@]1(CCc2ccccc2)CC(O)=C([C@H](CC)c2cccc(NS(=O)(=O)c3ccc(C(F)(F)F)cn3)c2)C(=O)O1 group_label=inactive
compound=C=C[C@]1(C)C[C@@H](OC(=O)CSC(C)(C)CNC(=O)[C@H](N)C(C)C)[C@]2(C)[C@H](C)CC[C@]3(CCC(=O)[C@H]32)[C@@H](C)[C@@H]1O group_label=active
compound=O=c1[nH]cnc2[nH]cc(CN3CCCCC3)c12 group_label=inactive
compound=NCCC[C@H](N)C(=O)O group_label=inactive
compound="Cc1cc(O)c2c(c1)O[C@@]1(C)CC[C@H]3C(C)(C)CCCC34CO[C@@H]2[C@H]41 (some centres undefined)" group_label=active

Query: Recorded test call requested for O=C(O)c1cccc(/C=C2/C[C@@H]3[C@@H](/C=C/[C@@H](O)C4CCCCC4)[C@H](O)C[C@@H]3O2)c1
Reply: inactive

Query: Recorded test call requested for CC(NNC(=O)c1ccccc1)c1ccccc1 (centres undefined)
Reply: inactive

Query: Recorded test call requested for CC(C)(CO)[C@@H](O)C(=O)NCCCC(=O)O
Reply: inactive

Query: Recorded test call requested for CC(C)N1CCN(c2ccc(OC[C@H]3CO[C@](Cn4cncn4)(c4ccc(Cl)cc4Cl)O3)cc2)CC1
Reply: inactive

----------
Assay: qHTS assay for identifying genotoxic compounds that show differential cytotoxicity against isogenic chicken DT40 cell lines with known DNA damage response pathways - wild type cell line (AID 743012); note: nearly all actives have a fitted effect of over 60% in size
Settings: DT40 wild type chicken cells viability, CellTiter-Glo, 40 h; series mostly up to 68.4 µM
Inconclusive results are not listed. Active and inactive are the calls of the source. Calls follow the shape of the dose curve; as a rule, active = well fitted cell-killing curve with a large enough effect in the repeat runs; inconclusive = weak or mixed curves, or effect the other way; inactive = no such curve, though single readings can be large or run the other way.
Entry note: the call must match one of true (1) for active, false (0) for inactive

# count of solved cases: 5
compound=CCN(CC)CCOCCOC(=O)C(CC)(CC)c1ccccc1 group_label="true (1)"
compound=CCOc1cc(-c2nccc3cc(OC)c(OC)cc23)cc(OCC)c1OCC group_label="true (1)"
compound=CCOC(=O)Cc1cccc(-c2cc(CCCCCCc3ccc(O[C@H]4O[C@H](COC(C)=O)[C@@H](OC(C)=O)[C@H](OC(C)=O)[C@@H]4OC(C)=O)c(-c4cccc(CC(=O)OCC)c4)c3)ccc2O[C@H]2O[C@H](COC(C)=O)[C@@H](OC(C)=O)[C@H](OC(C)=O)[C@@H]2OC(C)=O)c1 group_label="false (0)"
compound=CC[C@H]1NC(=O)[C@@H](NC(=O)c2ncccc2O)[C@@H](C)OC(=O)[C@H](c2ccccc2)NC(=O)[C@@H]2CC(=O)CCN2C(=O)[C@H](Cc2ccccc2)N(C)C(=O)[C@@H]2CCCN2C1=O group_label="false (0)"
compound="CC(CN(C)C)CN1c2ccccc2Sc2ccc(C(F)(F)F)cc21 (configuration not stated)" group_label="true (1)"

Query: Recorded test call requested for Cn1cc(NC(=O)c2cc(NC(=O)c3cc(NC=O)cn3C)cn2C)cc1C(=O)NCCC(=N)N
Reply: false (0)

Query: Recorded test call requested for COc1ccc2c(c1)OC(C)(C)C(c1ccccc1)C2c1ccc(OCCN2CCCC2)cc1 (configuration not stated)
Reply: true (1)
